# assayComment: chemical genetic growth profiling, strain panel (AID 1159580);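 further: tested at 20 µM; growth read once vehicle control cultures reached saturation at 30 °C; 1 = growth at the plate median or of vehicle wells; lower values mean less growth of the strain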
# measurementConditions: S. cerevisiae deletion strains, growth OD, locus YLR258W, strain gsy2, stronger effect = lower value
About 2,000 (36%) of roughly 5,500 compounds were called active. About 18% were inconclusive and are not listed. The list shows a part of the results.
Below is a list of entries, each paired with its recorded normalized growth value.

>  <molecule>
COc1ccc2cc([C@H](C)CO)ccc2c1

>  <normalized growth>
1.01

$$$$
>  <molecule>
COP(=O)(OC)OC=C(Cl)Cl

>  <normalized growth>
0.999

$$$$
>  <molecule>
CN1CCCN=C1COC(=O)C(O)(c1ccccc1)C1CCCCC1 (stereo unspecified)

>  <normalized growth>
1

$$$$
>  <molecule>
COc1ccc2cc([C@H](C)C(=O)O)ccc2c1

>  <normalized growth>
0.982

$$$$
>  <molecule>
CC(C(=O)O)c1cccc(C(=O)c2ccccc2)c1 (stereo unspecified)

>  <normalized growth>
0.987

$$$$
>  <molecule>
COc1cc(NC(C)CCCN)c2ncccc2c1 (stereo unspecified)

>  <normalized growth>
1.04

$$$$
>  <molecule>
C[C@H]1CC2C([C@@H](O)C[C@@]3(C)C2CC[C@]3(O)C(=O)CO)[C@@]2(C)C=CC(=O)C=C12 (stereo partly specified)

>  <normalized growth>
1.01

$$$$
>  <molecule>
CC(=O)NC1SCCC1=O (stereo unspecified)

>  <normalized growth>
0.985

$$$$
>  <molecule>
CCOC(=O)CCC(=O)O[C@H]1[C@H](O[C@@H]2[C@@H](C)[C@H](O[C@H]3C[C@@](C)(OC)[C@@H](O)[C@H](C)O3)[C@@H](C)C(=O)O[C@H](CC)[C@@](C)(O)[C@H](O)[C@@H](C)C(=O)[C@H](C)C[C@@]2(C)O)O[C@H](C)C[C@@H]1N(C)C

>  <normalized growth>
0.983

$$$$
>  <molecule>
CC(=O)O[C@H]1[C@@H]2[C@@H](OC(=O)Cc3ccccc3)[C@@H](C)C[C@]2(OC(C)=O)C(=O)/C(C)=C/[C@H]2[C@H](CC[C@@]13CO3)C2(C)C

>  <normalized growth>
0.986

$$$$
>  <molecule>
COc1ccc2c3c1O[C@H]1C[C@@H](O)C=C[C@@]31CCN(C)C2

>  <normalized growth>
1

$$$$
>  <molecule>
C=Cc1c2[nH]c(c1C)C=c1[nH]c(c(C)c1C=C)=CC1N=C(C=c3[nH]c(c(C)c3CCC(=O)O)=C2)C(CCC(=O)O)=C1C (stereo unspecified)

>  <normalized growth>
1.02

$$$$
>  <molecule>
CC1=C(C(C)O)C2=NC1C=c1[nH]c(c(C)c1C(C)O)=Cc1[nH]c(c(CCC(=O)O)c1C)C=c1[nH]c(c(C)c1CCC(=O)O)=C2 (stereo unspecified)

>  <normalized growth>
0.996

$$$$
>  <molecule>
CC1(C)OC(=O)NC1=O

>  <normalized growth>
1

$$$$
>  <molecule>
O=C(O)c1cc2ccccc2[nH]1

>  <normalized growth>
0.989

$$$$
>  <molecule>
CC(C)(O)[C@@H]1[C@H]2OC(=O)[C@@H]1[C@]1(O)C[C@H]3O[C@]34C(=O)O[C@H]2[C@]14C

>  <normalized growth>
0.997

$$$$
>  <molecule>
CCN(CCO)CCCC(C)Nc1ccnc2cc(Cl)ccc12 (stereo unspecified)

>  <normalized growth>
0.999

$$$$
>  <molecule>
O=C(O)C1(O)C[C@@H](O)C(O)[C@H](O)C1 (stereo partly specified)

>  <normalized growth>
0.973

$$$$
>  <molecule>
CS(=O)(=O)c1ccc(C2=C(c3ccccc3)C(=O)OC2)cc1

>  <normalized growth>
0.988

$$$$
>  <molecule>
CCCCCCNC(=O)n1cc(F)c(=O)[nH]c1=O

>  <normalized growth>
0.884

$$$$
>  <molecule>
S=c1nc[nH]c2nc[nH]c12

>  <normalized growth>
1.01

$$$$
>  <molecule>
Cc1cc(O)c(C)c(O)c1C(=O)O

>  <normalized growth>
0.994

$$$$
>  <molecule>
CCN(CC)CCCC(C)Nc1c2ccc(Cl)cc2nc2ccc(OC)cc12 (stereo unspecified)

>  <normalized growth>
0.954

$$$$
>  <molecule>
COc1ccc2c(c1OC)C(=O)O[C@@H]2[C@H]1c2cc3c(cc2CCN1C)OCO3

>  <normalized growth>
0.988

$$$$
>  <molecule>
CCOC(=O)c1c(C)c(Cl)c(O)c(Cl)c1O

>  <normalized growth>
0.561

$$$$
>  <molecule>
CN1CCC(=C2c3ccccc3Sc3ccccc32)CC1

>  <normalized growth>
1.04

$$$$
>  <molecule>
CC(C)OC(=O)C(C)(C)Oc1ccc(C(=O)c2ccc(Cl)cc2)cc1

>  <normalized growth>
0.957

$$$$
>  <molecule>
COC1=CC(=O)C[C@@H](C)[C@]12Oc1c(Cl)c(OC)cc(OC)c1C2=O

>  <normalized growth>
0.982

$$$$
>  <molecule>
CC1=C(CC(=O)O)c2cc(F)ccc2/C1=C\c1ccc(S(C)=O)cc1 (stereo unspecified)

>  <normalized growth>
1.01

$$$$
>  <molecule>
COc1ccc(OC)c(C(O)C(C)N)c1 (stereo unspecified)

>  <normalized growth>
1.01

$$$$
>  <molecule>
OCCN1C[C@@H](O)[C@@H](O)C(O)C1CO (stereo partly specified)

>  <normalized growth>
1

$$$$
>  <molecule>
COc1cc2c(cc1OC)Cc1cc(OC)c(OC)cc1Cc1cc(OC)c(OC)cc1C2

>  <normalized growth>
1.03

$$$$
>  <molecule>
CC1CC2C3CC(F)C4=CC(=O)C=CC4(C)C3(F)C(O)CC2(C)C1(O)C(=O)CO (stereo unspecified)

>  <normalized growth>
0.995

$$$$
>  <molecule>
CCCCCCCCCCCCCCCC[N+](C)(C)C

>  <normalized growth>
0.0561

$$$$
>  <molecule>
CCC(=O)O[C@H]1[C@H](O[C@@H]2[C@@H](C)[C@H](O[C@H]3C[C@@](C)(OC)[C@@H](O)[C@H](C)O3)[C@@H](C)C(=O)O[C@H](CC)[C@@](C)(O)[C@H](O)[C@@H](C)C(=O)[C@H](C)C[C@@]2(C)O)O[C@H](C)C[C@@H]1N(C)C

>  <normalized growth>
0.902

$$$$
>  <molecule>
c1ccc(N=Nc2ccccc2)cc1

>  <normalized growth>
0.974

$$$$
>  <molecule>
CCOC(=O)[C@H](CCc1ccccc1)N[C@H]1CCc2ccccc2N(CC(=O)O)C1=O

>  <normalized growth>
0.983

$$$$
>  <molecule>
COc1cc(NS(=O)(=O)c2ccc(N)cc2)nc(OC)n1

>  <normalized growth>
0.979

$$$$
>  <molecule>
CCCCNc1cc(C(=O)O)cc(S(N)(=O)=O)c1Oc1ccccc1

>  <normalized growth>
0.995

$$$$
>  <molecule>
c1cncc(C2CCCCN2)c1 (stereo unspecified)

>  <normalized growth>
1.02

$$$$
>  <molecule>
CC(=O)OC(C)(C)[C@@H]1Cc2cc3ccc(=O)oc3cc2O1

>  <normalized growth>
0.951

$$$$

Attribution: PubChem BioAssay AID1159580
